Target: human COX-2 (Homo sapiens)
Construct: purchased Biovision, Zurich, Switzerland
Sequence (P35354 18-604): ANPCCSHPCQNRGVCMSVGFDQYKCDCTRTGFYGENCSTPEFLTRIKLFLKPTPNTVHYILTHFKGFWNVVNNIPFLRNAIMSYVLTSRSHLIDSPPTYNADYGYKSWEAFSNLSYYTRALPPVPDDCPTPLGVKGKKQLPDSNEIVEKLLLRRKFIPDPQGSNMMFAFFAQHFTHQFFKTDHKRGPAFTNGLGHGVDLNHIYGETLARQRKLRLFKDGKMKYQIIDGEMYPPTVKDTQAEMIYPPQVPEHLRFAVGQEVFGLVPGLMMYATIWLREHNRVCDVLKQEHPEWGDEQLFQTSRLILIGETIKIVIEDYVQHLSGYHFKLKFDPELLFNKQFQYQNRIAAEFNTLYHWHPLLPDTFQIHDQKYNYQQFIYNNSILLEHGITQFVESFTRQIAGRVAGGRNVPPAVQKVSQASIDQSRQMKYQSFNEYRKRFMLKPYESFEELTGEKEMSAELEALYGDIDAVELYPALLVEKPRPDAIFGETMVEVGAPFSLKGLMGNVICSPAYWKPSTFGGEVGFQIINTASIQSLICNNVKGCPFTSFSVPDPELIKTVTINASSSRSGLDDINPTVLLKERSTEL
Test: COX-2 inhibition assay (fluorometric inhibitor screening kit)
Format: biochemical
Conditions: 10^−8 M; mean of three experiments ± SD; read-out: COX-2 Inhibition (%)

compound	target entity	uom	inhibition at 0.01 µM
COc1ccc(-c2nc(NCc3cc4ccccc4s3)nc(OC)c2C#N)cc1 [Compound 3d]	human COX-2 (Homo sapiens)	%	70.3
COc1ccc(-c2nc(NS(=O)(=O)c3ccccc3)nc(OC)c2C#N)cc1 [Compound 5a]	human COX-2 (Homo sapiens)	%	72.2
COc1ccc(-c2nc(NCc3nc4ccccc4o3)nc(OC)c2C#N)cc1 [Compound 3b]	human COX-2 (Homo sapiens)	%	77
COc1ccc(-c2nc(NS(=O)(=O)c3ccc(C(C)(C)C)cc3)nc(OC)c2C#N)cc1 [Compound 5c]	human COX-2 (Homo sapiens)	%	73.2
COc1ccc(-c2nc(NCc3nc4ccccc4s3)nc(OC)c2C#N)cc1 [Compound 3c]	human COX-2 (Homo sapiens)	%	32.5
COc1ccc(-c2nc(NS(=O)(=O)c3ccc(C)cc3)nc(OC)c2C#N)cc1 [Compound 5b]	human COX-2 (Homo sapiens)	%	75.2
COc1ccc(-c2nc(NS(=O)(=O)c3ccc(C(F)(F)F)cc3)nc(OC)c2C#N)cc1 [Compound 5d]	human COX-2 (Homo sapiens)	%	76.1
COc1ccc(-c2nc(NCc3nc4ccccc4[nH]3)nc(OC)c2C#N)cc1 [Compound 3a]	human COX-2 (Homo sapiens)	%	32
